Assay: gradient 5% acetonitrile 3 min, to 50% in 2 min, to 85% in 15 min, held 3 min, 100 µL/min
Details: column: Zorbax Extend-C18 2.1 x 50 mm; eluents: water / acetonitrile, 0.1% formic acid
MEASURED_PROPERTY: RP-LC retention time (s)

{"columns": ["COMPOUND", "RP-LC retention time / s"],
 "data": [
  ["Cc1nn(C(C)C(=O)NCCCOC(C)C)c(=O)c2c(C)n(-c3ccccc3)nc12 (stereo unspecified)", 823],
  ["O=C(NCCC1=CCCCC1)C1CC(=O)N(C2CCCCCC2)C1 (stereo unspecified)", 906],
  ["Cc1ccc(NC(=O)CSc2nc(=O)n(CCN(C)C)c3c2CCC3)cc1", 636],
  ["CCc1nc2cc(-c3noc(CCc4c[nH]c5ccccc45)n3)ccc2o1", 1050],
  ["Cc1ccc(NC(=O)N2CCC(n3cnc4c(C)cccc4c3=O)CC2)cc1", 801],
  ["O=C(Cn1c(=O)oc2ccccc21)N1C[C@H]2C[C@H](C1)[C@H]1CCCC(=O)N1C2", 658],
  ["O=C(Cc1ccc(F)cc1)Nc1ccc(-c2cn3c(C(=O)N4CCCC4)csc3n2)cc1", 783],
  ["CCC(=O)N1c2ccccc2NC2=C(C(=O)CC(C)(C)C2)C1c1ccc(C(=O)OC)cc1 (stereo unspecified)", 749],
  ["CCCc1cc(N2CCN(C(=O)Cc3cccs3)CC2)nc2nnc(C)n12", 620],
  ["CCN1C(=O)C(C)(C(=O)Nc2ccc(C(=O)OC)cc2)Oc2cccnc21 (stereo unspecified)", 861],
  ["COc1ccc(NC(=O)c2ccc(-c3ccc(-c4noc(C)n4)cc3C)cc2)cc1OCCN(C)C", 788]
]}
